Where do the numbers come from? From patent US20210024615A1.

biological target: human FcγRIIIA (human, UniProt P08637 17-208); experiment: ELISA
Sequence (P08637 17-208 limits assumed): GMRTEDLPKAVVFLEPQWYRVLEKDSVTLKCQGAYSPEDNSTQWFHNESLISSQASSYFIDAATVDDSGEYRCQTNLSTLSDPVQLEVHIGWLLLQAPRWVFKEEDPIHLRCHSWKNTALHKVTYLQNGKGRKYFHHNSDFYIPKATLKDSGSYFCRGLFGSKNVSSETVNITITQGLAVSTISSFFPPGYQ

binder: [change]/[change]/[change]/[change] (other) NKTHTCPPCPAPELLGGPSVFLFPPKPKDTLMISRTPEVTCVVVDVSHEDPEVKFNWYVDGVEVHNAKTKPREEQYASTYRVVSVLTVCLQDWLNGKEYKCKVSNKALPAPIEKTISKAKGQPREPQVYTLPPSREEMTKNQVSLTCLVKGFYPSDIAVEWESNGQPENNYKTTPPVLDSDGSFFLYSKLTVDKSRWQQGNVFSCSVMHEALHNHYTQKSLSLSPGKLVLGPPLYAVSLVMSDTAGTAY
binding result: no binding
--
binder: [change]/[change]/[change] (other) DKTHTCPPCPAPELLGGPSVFLFPPKPKDTLMISRTPEVTCVVVDVSHEDPEVKFNWYVDGVEVHNAKTKPREEQYASTYRVVSVLTVCLQDWLNGKEYKCKVSNKALPAPIEKTISKAKGQPREPQVYTLPPSREEMTKNQVSLTCLVKGFYPSDIAVEWESNGQPENNYKTTPPVLDSDGSFFLYSKLTVDKSRWQQGNVFSCSVMHEALHNHYTQKSLSLSPGKLVLGPPLYAVSLVMSDTAGTAY
binding result: no binding
--
binder: [change]/[change] (other) NKTHTCPPCPAPELLGGPSVFLFPPKPKDTLMISRTPEVTCVVVDVSHEDPEVKFNWYVDGVEVHNAKTKPREEQYNSTYRVVSVLTVCLQDWLNGKEYKCKVSNKALPAPIEKTISKAKGQPREPQVYTLPPSREEMTKNQVSLTCLVKGFYPSDIAVEWESNGQPENNYKTTPPVLDSDGSFFLYSKLTVDKSRWQQGNVFSCSVMHEALHNHYTQKSLSLSPGKLVLGPPLYNVSLVMSDTAGTAY
binding result: no binding
--
binder: [change]/[change]/[change] (other) NKTHTCPPCPAPELLGGPSVFLFPPKPKDTLMISRTPEVTCVVVDVSHEDPEVKFNWYVDGVEVHNAKTKPREEQYNSTYRVVSVLTVCLQDWLNGKEYKCKVSNKALPAPIEKTISKAKGQPREPQVYTLPPSREEMTKNQVSLTCLVKGFYPSDIAVEWESNGQPENNYKTTPPVLDSDGSFFLYSKLTVDKSRWQQGNVFSCSVMHEALHNHYTQKSLSLSPGKLVLGPPLYAVSLVMSDTAGTAY
binding result: binds
--
binder: [change]/[change] (other) DKTHTCPPCPAPELLGGPSVFLFPPKPKDTLMISRTPEVTCVVVDVSHEDPEVKFNWYVDGVEVHNAKTKPREEQYASTYRVVSVLTVCLQDWLNGKEYKCKVSNKALPAPIEKTISKAKGQPREPQVYTLPPSREEMTKNQVSLTCLVKGFYPSDIAVEWESNGQPENNYKTTPPVLDSDGSFFLYSKLTVDKSRWQQGNVFSCSVMHEALHNHYTQKSLSLSPGKLVLGPPLYNVSLVMSDTAGTAY
binding result: no binding
--
binder: [change]/[change]/[change] (other) NKTHTCPPCPAPELLGGPSVFLFPPKPKDTLMISRTPEVTCVVVDVSHEDPEVKFNWYVDGVEVHNAKTKPREEQYASTYRVVSVLTVCLQDWLNGKEYKCKVSNKALPAPIEKTISKAKGQPREPQVYTLPPSREEMTKNQVSLTCLVKGFYPSDIAVEWESNGQPENNYKTTPPVLDSDGSFFLYSKLTVDKSRWQQGNVFSCSVMHEALHNHYTQKSLSLSPGKLVLGPPLYNVSLVMSDTAGTAY
binding result: no binding
